assay: amyloid nucleation score (Sup35N fusion, yeast selection) (log enrichment); library NNK3; higher = more nucleation; inactive = no reads after selection;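 further: zero at mode of non-aggregating sequences after 7 days selection at 30°C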
experimental_endpoint: amyloid nucleation score

> print(dat)
              substance    result
1  ILVLDSWYVACTTACKGTNK     -1.57
2  RGICGNQLCRVMPLLNPHGC  inactive
3                RMYPHE  inactive
4             SKAMWLSLM  inactive
5                LSYYVS  inactive
6  GIKKTREPNCLVCIDIWIFI      1.33

[Q] So what's the measured amyloid nucleation score for this one? GKGFCLLVVSSVMRDVGLVQ
[A] inactive

[Q] What do you get for IYQWTEFCGRIFQSCRMVLC ?
[A] inactive

[Q] What do you get for MRLYLFSRYPLARTTFMSTC ?
[A] inactive

###

test: amyloid nucleation score (Sup35N fusion, yeast selection) (log enrichment); library NNK3; higher = more nucleation; inactive = no reads after selection
experimental_endpoint: amyloid nucleation score

Field: example entries. Status: answers known.
> print(dat)
              substance     experimental.endpoint    result
1  FKWDGPESQFGPSLMRINGA  amyloid nucleation score      1.16
2  FHIRHEGMLFQWGHEALAVK  amyloid nucleation score  inactive
3  VRFCSEMVCLDYFSNIMHLG  amyloid nucleation score  inactive
4  VRNILRLNRFCWCKTLQKIA  amyloid nucleation score  inactive
5  KYWICVFFVMIRDPIAYWDD  amyloid nucleation score  inactive
6  SCCGRKMRPGRFEIIDKFCI  amyloid nucleation score     0.523
7   YLGRFNSKFMTSVLIMYYP  amyloid nucleation score  inactive
8           PDHEMGSHLLV  amyloid nucleation score  inactive

[Q] So what's the measured amyloid nucleation score for this one? QFIEMSSQYFSMRYVDRVAD
[A] inactive

[Q] What do you get for RGYSFCRPSHWWKARCVEGE ?
[A] inactive

[Q] What do you get for CQCEIF ?
[A] 0.065

[Q] What do you get for IYGLLVDRRAVIFFEYMHLV ?
[A] inactive

[Q] What do you get for VVFENLDRAFVYRRLDPIRC ?
[A] inactive

[Q] What do you get for NQWLCLHLCQR ?
[A] inactive

[Q] What do you get for TNLVAIKYLFT ?
[A] -0.022

[Q] What do you get for DCNSVFVLRVFNSVLFGIKD ?
[A] inactive

###

assay: amyloid nucleation score (Sup35N fusion, yeast selection) (log enrichment); library NNK3; higher = more nucleation; inactive = no reads after selection
experimental_endpoint: amyloid nucleation score

Field: example entries. Status: answers known.
> print(dat)
               substance     experimental.endpoint    result
 1  THFQEPLSESGDRCLDDGYL  amyloid nucleation score  inactive
 2    SYSSMCLPKNTKAHASWC  amyloid nucleation score  inactive
 3  APSPPMNFSPCKLDLPCWAI  amyloid nucleation score  inactive
 4  RCIVSRLTWGTILISFLQNR  amyloid nucleation score  inactive
 5  NRMQVMLSVVRSSLFVWMQW  amyloid nucleation score  inactive
 6      NRFWLLCDFLFVHTCV  amyloid nucleation score     0.897
 7  KLYLLLLYFLDMTVFWFVAV  amyloid nucleation score  inactive
 8  NTYVIVPWKLLTNFDEFPHR  amyloid nucleation score  inactive
 9             RNIQWRFIP  amyloid nucleation score  inactive
10              SMFSLWNS  amyloid nucleation score  inactive

[Q] So what's the measured amyloid nucleation score for this one? DLILWFPL
[A] inactive

[Q] What do you get for LSNQLKDEYHCMWMWWVCPN ?
[A] 1.29

###

assay: amyloid nucleation score (Sup35N fusion, yeast selection) (log enrichment); library NNK1; higher = more nucleation; inactive = no reads after selection
Would you please tag the item 1 when its amyloid nucleation score is 0.3 or above, and -1 when it is below?

> print(dat)
              substance  assigned.class
1     NLLVCGVLRNCVSGTMF               1
2  SNSRFMLHGWAGIWFIWSWG              -1
3        CSCEVNMRLIGCKK              -1

[Q] # check: amyloid nucleation score of HRNWCCCCSCWSRLKMHLEL is greater than or equal to 0.3
[A] -1

[Q] What do you get for IWDCLFPSSSAMSYPVDPKA ?
[A] 1

[Q] What do you get for SHERLNQCSNFSSWQNRGGL ?
[A] -1

[Q] What do you get for GPCNTRSCV ?
[A] -1

###

amyloid nucleation score: recorded values
experiment: amyloid nucleation score (Sup35N fusion, yeast selection) (log enrichment); library NNK2; higher = more nucleation; inactive = no reads after selection
Write no unit; give the number alone.

> print(dat)
              substance  recorded.number
1  VDIVFSPSTNQWFLFLNCLV             4.24
2  HCIMYSTLRHRVWSGRLDGS             3.86
3  NLVYYYHLLSRIVNSYNDAL            0.811
4               PLLGLRG            0.102
5  TYIRDRHIVYWGHTGSFIYM             1.63

[Q] So what's the measured amyloid nucleation score for this one? FQIMKAYDTLPFLVYPVTGD
[A] -0.117

[Q] What do you get for YLLTLFGPRMTD ?
[A] -1.45

[Q] What do you get for ILRYSFCRMLFAPRVTLIRF ?
[A] 1.74

[Q] What do you get for CIMVSIVPKGVCLGVLVAVA ?
[A] 0.345

[Q] What do you get for RFFGTTFYTAMMTRGFETVT ?
[A] -0.139

[Q] What do you get for LLVSSVSMTWHGKLSHTYFK ?
[A] 4.62

###

assay: amyloid nucleation score (Sup35N fusion, yeast selection) (log enrichment); library NNK1; higher = more nucleation; inactive = no reads after selection
Would you please tag the item Y when its amyloid nucleation score is 0.3 or above, and N when it is below?

Field: example entries. Status: answers known.
> print(dat)
              substance  assigned.class
1  AEYCSNVGMSLYFLWSKPMQ               Y
2         ICILLFGVRSDCM               Y
3  CVLSPALFMRARLLRGILGR               Y
4  YSIPNDLNPSCKSHLMPRGH               Y
5  TVRGSTRSKLSGASWQCWRA               N
6  AENITGWVVPIVVTLTASAR               N

[Q] # check: amyloid nucleation score of EANCLFEWSMMLRYSARDGT is greater than or equal to 0.3
[A] Y

[Q] What do you get for GCVLFDLSHL ?
[A] N

[Q] What do you get for IISKGSWSKSTDFGGLM ?
[A] N

[Q] What do you get for SLLNRVGLWRRSSLCLMTGC ?
[A] Y

[Q] What do you get for SKLMRVVCVVISVAYTWNEE ?
[A] N

###

experiment: amyloid nucleation score (Sup35N fusion, yeast selection) (log enrichment); library NNK2; higher = more nucleation; inactive = no reads after selection
Note: every record was labeled by where its amyloid nucleation score sits among low interval: < -0.6; middle interval: ≥ -0.6 and < 1; high interval: ≥ 1

> print(dat)
       primary.sequence  assigned.class
1  AWLYFVLFNRVTCCMTNVEE   high interval

[Q] Which class holds HQRYSRLLIKKCYTSASVPC ?
[A] middle interval

[Q] What do you get for IKVYSTVYQVSCLLRLMLLM ?
[A] low interval

[Q] What do you get for VTFSSIVTISLISYLQRFWR ?
[A] high interval

[Q] What do you get for VYVRFWESSSCYTRGRNGWN ?
[A] high interval

[Q] What do you get for GSYPGRLFTCVKMGVT ?
[A] middle interval

[Q] What do you get for TWTHCIGSLIR ?
[A] low interval

###

assay: amyloid nucleation score (Sup35N fusion, yeast selection) (log enrichment); library NNK2; higher = more nucleation; inactive = no reads after selection
Note: every record was labeled by where its amyloid nucleation score sits among low interval: < 0.2; middle interval: ≥ 0.2 and < 1; high interval: ≥ 1

Field: example entries. Status: answers known.
> print(dat)
              substance   assigned.class
1            FYRGSQVMPR     low interval
2  RKAMRYVVCDRRPMCYRNSW  middle interval
3  WFGLDVNCLRSWFGLWKFVE     low interval
4  FDMVSVVVYMRAVTTKCGPS    high interval
5        HIIIFLWYRRHFSS    high interval
6  AKSNLVDFYTFWSTIECLTM     low interval
7  ELGYCYSFGHSQFFKQSKHG    high interval
8              FCNNWDFF    high interval

[Q] Which class holds HRTGWKIFVSW ?
[A] middle interval

[Q] What do you get for SLKTVAFHSEMFFCSTLVDM ?
[A] low interval
